Test system: MCF-7 cells
assay.info: SRB cytotoxicity assay, MCF-7 cells
Format: cell-based
protocol.conditions: Homo sapiens, MCF7, 48 h, read-out: IC50 against MCF-7 cells
measured.parameter: IC50 (µM)
I only need the number, in µM, no unit after it.

Answered examples (2):
COc1cc2cc(Oc3ccc4ccc(=O)oc4c3)c(=O)oc2cc1OC | 66.1
O=C1c2c(O)cc(O)cc2OC(c2ccc(O)cc2)C1Oc1ccc(C2Oc3cc(O)cc(O)c3C(=O)C2C2C(=O)c3c(O)cc(O)cc3OC2c2ccc(O)cc2)cc1 (stereo not drawn) | 4.26

Now turn to the next compound.
query: Requested field: IC50. Item: COc1cc2cc(Oc3ccc4ccc(=O)oc4c3)c(=O)oc2cc1OC(C)=O
result: 46.4

---

assay.info: SRB cytotoxicity assay, HepG2 cells
Format: cell-based
protocol.conditions: human, read-out: In vitro cytotoxic effect IC50, HepG2
IC50 at 48 h by entry:
# value in µM; strip the unit string

COc1cc2oc(=O)c(Oc3ccc4ccc(=O)oc4c3)cc2cc1O | 29.8
COc1cccc2c1C(=O)c1c(O)c3c(c(O)c1C2=O)C[C@@](O)(C(=O)CO)C[C@@H]3O[C@H]1C[C@H](N)[C@H](O)[C@H](C)O1 [Doxo, Doxorubicin, reference compound] | 7.7

For the next question, use this compound.
query: Look at this compound and give its reported IC50 at 48 h. COc1cc2cc(Oc3ccc4ccc(=O)oc4c3)c(=O)oc2cc1OC(C)=O
result: 9.4

---

assay.info: SRB cytotoxicity assay, HepG2 cells
Type: cell-based
protocol.conditions: human, read-out: In vitro cytotoxic effect IC50, HepG2
IC50 at 48 h under 30 µM gets fulfilled, anything at or over 30 µM gets not fulfilled.

O=C1c2c(O)cc(O)cc2OC(c2ccc(O)cc2)C1Oc1ccc(C2Oc3cc(O)cc(O)c3C(=O)C2C2C(=O)c3c(O)cc(O)cc3OC2c2ccc(O)cc2)cc1 (stereo not drawn) [Compound 1] | fulfilled

query: Does the reported IC50 at 48 h of COc1cc2cc(O)c(=O)oc2cc1Oc1ccc2ccc(=O)oc2c1 [Compound 4, neodaphnoretin] stay below 30 µM?
result: fulfilled

query: Try the molecule O=C(C=Cc1ccc(O)cc1)OCC1OC(Oc2c(-c3ccc(O)cc3)oc3cc(O)cc(O)c3c2=O)C(O)C(O)C1O (stereo not drawn) [Compound 8, trans-tiliroside]
result: fulfilled

query: Try O=c1ccc2ccc(Oc3cc4cc(O)c(O)cc4oc3=O)cc2o1 [Compound 6, edgeworthin] next.
result: not fulfilled

query: Would you mind doing COc1cc2cc(Oc3ccc4ccc(=O)oc4c3)c(=O)oc2cc1OC [Compound 2, daphnoretin methyl ether] as well?
result: fulfilled

query: Do the same for O=C(O)c1ccc(O)cc1 [Compound 9, p-hydroxy benzoic acid] please
result: not fulfilled

---

assay.info: SRB cytotoxicity assay, Vero normal cells
Type: cell-based
protocol.conditions: African green monkey, Vero E6 cells (normal cells), read-out: In vitro cytotoxic effect IC50, Vero
measured.parameter: IC50 at 48 h (µM)
Quick note: give the figure in µM, leave out the unit.

O=C(O)c1ccc(O)cc1 [Compound 9, p-hydroxy benzoic acid] | 203
COc1cccc2c1C(=O)c1c(O)c3c(c(O)c1C2=O)C[C@@](O)(C(=O)CO)C[C@@H]3O[C@H]1C[C@H](N)[C@H](O)[C@H](C)O1 [Doxo, Doxorubicin, reference compound] | 45.8
O=C(C=Cc1ccc(O)cc1)OCC1OC(Oc2c(-c3ccc(O)cc3)oc3cc(O)cc(O)c3c2=O)C(O)C(O)C1O (stereo not drawn) [Compound 8, trans-tiliroside] | 50.5

query: For COc1cc2cc(O)c(=O)oc2cc1Oc1ccc2ccc(=O)oc2c1 , what is its reported IC50 at 48 h?
result: 124
